- assay procedure: NCI Yeast Anticancer Drug Screen. Data for the mlh1 rad18 strain (AID 175)
- experimental context: S. cerevisiae mlh1 rad18 strain growth inhibition; at 50.0 µM; stronger effect = higher value
This is part of a sample that, as a whole, favours compounds with a hit. Of some 79,000 tested, about 15% had one in any assay.
metric: growth inhibition (%)
Report the figure in % without appending any unit label.

stdin: For the compound COc1c(C)cc(Cc2ccc3c(c2)OCO3)cc1C , what growth inhibition is on record?
stdout: -5.3

stdin: For the compound COc1ccc(C(=O)C(CO)Oc2ccccc2OC)cc1OC (stereo not given) , what growth inhibition is on record?
stdout: -1.35

stdin: For the compound CN(C)C(=S)/N=C1\SCS(=O)(=O)N1C , what growth inhibition is on record?
stdout: 9.15

stdin: For the compound CCOC(=O)C(NC(=O)c1ccccc1)(c1ccc(S(=O)(=O)Nc2onc(C)c2C)cc1)C(F)(F)F (stereo not given) , what growth inhibition is on record?
stdout: -4.25

stdin: For the compound CC(=O)NCCC1CN(C(=O)/C=C/I)c2ccccc21 (stereo not given) , what growth inhibition is on record?
stdout: -17.4

----------
- assay procedure: NCI Yeast Anticancer Drug Screen. Data for the cln2 rad14 strain (AID 165);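 note: 0% = growth equal to vehicle treated cultures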
- experimental context: S. cerevisiae cln2 rad14 strain, at 50.0 µM, stronger effect = higher value
Compounds without any hit were thinned out: in the full panel of roughly 79,000, 15% have a hit. Where a SMILES comes first, the peptide text is derived from it. [ ]: non-standard residue; d: D form. The star is where a group is joined. Cbz = O=C(OCc1ccccc1)*; Nva = CCC[CH](N)C(=O)O
Kindly state growth inhibition for each of the entries shown.
Report the figure in % without appending any unit label.

stdin: For the compound CCCCOc1ccc2nc(C)cc(N/N=C/c3ccc(OC)c4ccccc34)c2c1 , what growth inhibition is on record?
stdout: 42.9

stdin: For the compound [Cu+2].[Cu+2].[O-]c1ccccc1C=Nc1ccccc1[O-].[O-]c1ccccc1C=Nc1ccccc1[O-] , what growth inhibition is on record?
stdout: 16.9

stdin: For the compound Cc1ccc(C(=O)CCN2CCOCC2)c(C)c1 , what growth inhibition is on record?
stdout: -4.65

stdin: For the compound CCOC(=O)C1C(=O)CC(=O)C(C(=O)OCC)C1C1CC=CCC1 (configuration not stated) , what growth inhibition is on record?
stdout: 38.7

stdin: For the compound O=[N+]([O-])c1cccc(S(=O)(=O)NC2c3ccccc3Oc3ccccc32)c1 , what growth inhibition is on record?
stdout: 21.4

stdin: For the compound CC(=O)N(C)c1ccc(NC(=S)NC(=O)c2cccc([N+](=O)[O-])c2)cc1 , what growth inhibition is on record?
stdout: -4.15

stdin: For the compound CC(NC(=O)C(Cc1ccccc1)NC(=O)OCc1ccccc1)C(=O)NC1C(CO)OC(n2cnc3c(N)ncnc32)C1O (configuration not stated) , what growth inhibition is on record?
stdout: -1.1

stdin: For the compound CCCC(NC(=O)OCc1ccccc1)C(=O)NC(C(=O)O)C(C)CC (configuration not stated) (Cbz-[Nva]-Ile-OH; configuration not given here) , what growth inhibition is on record?
stdout: 29.1

stdin: For the compound c1ccc(CC2(c3ccccc3)OCc3ccccc32)cc1 (configuration not stated) , what growth inhibition is on record?
stdout: 15.4

stdin: For the compound O=c1/c(=C/c2cccc([N+](=O)[O-])c2)sc2nc3ccccc3n12 , what growth inhibition is on record?
stdout: -4.65

stdin: For the compound OCCN(Cc1ccccc1)C(c1ccccc1)c1ccccc1 , what growth inhibition is on record?
stdout: 98.4

stdin: For the compound Cc1ccc(/C(C#N)=C/c2ccccc2)cc1 , what growth inhibition is on record?
stdout: 19.6

stdin: For the compound COc1ccc(C(=O)N2CCN(C)CC2)cc1OC , what growth inhibition is on record?
stdout: 13.4

stdin: For the compound N#Cc1ccc2ccccc2c1 , what growth inhibition is on record?
stdout: -4.65

stdin: For the compound CC1SCC(C)(C)NC1=O (configuration not stated) , what growth inhibition is on record?
stdout: -8.5

stdin: For the compound O=C(O)CSc1c(Cl)c(=O)oc2ccc(Cl)cc12 , what growth inhibition is on record?
stdout: -2

stdin: For the compound Cc1cc2c(cc1Cl)SC(NNC(=O)c1ccccc1)=NS2(=O)=O , what growth inhibition is on record?
stdout: -42.2

stdin: For the compound C=C1CC2C(=O)N(c3ccccc3)C(=O)C2CC1n1[nH]c(=O)n(Cc2ccccc2)c1=O (configuration not stated) , what growth inhibition is on record?
stdout: -29.8

stdin: For the compound O=C1C[C@@H]2CCCC[C@@H]2C12SCCS2 , what growth inhibition is on record?
stdout: 13.8

stdin: For the compound Cc1nc(N)sc1C(=O)/C=C/c1ccc([N+](=O)[O-])cc1 , what growth inhibition is on record?
stdout: 20.8

stdin: For the compound CCc1cccc(C(C)(C)C)c1NC(=S)N/C=C(/C#N)C(N)=O , what growth inhibition is on record?
stdout: 13.7

stdin: For the compound C/C(=N/O)C1c2ccccc2Cc2ccccc21 , what growth inhibition is on record?
stdout: -12.8

stdin: For the compound NS(=O)(=O)c1ccc(NC(=O)Nc2ccccc2)cc1 , what growth inhibition is on record?
stdout: -18.1

stdin: For the compound CN(C)c1ccc(C(=O)O)cc1 , what growth inhibition is on record?
stdout: -28.8

stdin: For the compound CCOP(=O)(OCC)C1=C(P(=O)(OCC)OCC)C(F)(F)C1(F)F , what growth inhibition is on record?
stdout: -13.1

stdin: For the compound N#CCCN(Cc1ccccc1)CN1C(=O)c2ccccc2C1=O , what growth inhibition is on record?
stdout: 17.9

stdin: For the compound Cc1ccc(/C=N/NC(N)=O)cc1 , what growth inhibition is on record?
stdout: 10.4

stdin: For the compound CSc1cc(Cl)c(C)cc1S(=O)(=O)NC(=O)NNc1ccc(Cl)cc1 , what growth inhibition is on record?
stdout: 7.55

stdin: For the compound CC12CC3CC(O)(C1)CC(O)(C3)C2 , what growth inhibition is on record?
stdout: 22.2

stdin: For the compound CC1=NN(c2ccccc2)C(N)C1 (configuration not stated) , what growth inhibition is on record?
stdout: 11.5

stdin: For the compound N#CCc1ccc(/C(C#N)=C2/OC(=N)C(c3ccc(CC#N)cc3)C2=O)cc1 (configuration not stated) , what growth inhibition is on record?
stdout: -21.6

stdin: For the compound O=c1nc(-c2ccco2)sc(=O)[nH]1 , what growth inhibition is on record?
stdout: 13.2

stdin: For the compound O=C(O)C(Cc1ccccc1)NC(c1ccc(Cl)cc1)P(=O)(O)O (configuration not stated) , what growth inhibition is on record?
stdout: 12.8

stdin: For the compound Cc1nnc2cc1CCCCCCCCC2 , what growth inhibition is on record?
stdout: 5.2

stdin: For the compound O=C(OC1C#CCSCC#C/C=C\1)c1ccc2c(c1)C(=O)c1ccccc1C2=O (configuration not stated) , what growth inhibition is on record?
stdout: -37

stdin: For the compound CCCc1nc(N)[nH]c(=O)c1I , what growth inhibition is on record?
stdout: 5.3

stdin: For the compound C=C(C)c1nc(N)nc(-c2cccc(-c3nc(N)nc(C(=C)C)n3)c2)n1 , what growth inhibition is on record?
stdout: -67.6

Data origin: PubChem BioAssay (NCI)
